Assay: in vivo
Conditions: rat, plasma, po, 10 mg/kg
property_measured: Cmax
Enter the number, and then the unit.

Cc1cccc(COC(=O)NC(C(=O)N[C@@H](Cc2ccccc2)C[C@H](O)[C@H](Cc2ccccc2)NC(=O)OCc2ccoc2)C(C)C)n1 (stereo partly drawn) = 160 nM
CCc1nc(COC(=O)NC(C(=O)N[C@@H](Cc2ccccc2)C[C@H](O)[C@H](Cc2ccccc2)NC(=O)OCc2cccnc2)C(C)C)cs1 (stereo partly drawn) = 1300 nM

Now for the compound whose Cmax we want.
Consider the compound CC(C)c1nc(CCC(=O)NC(C(=O)N[C@@H](Cc2ccccc2)C[C@H](O)[C@H](Cc2ccccc2)NC(=O)OCc2cccnc2)C(C)C)cs1 (stereo partly drawn) and give its measured Cmax.
380 nM

###

Assay: in vivo
Conditions: rat, plasma, po
Items are presented alongside their recorded log10 AUC.
For clarity, the numbers are log10 values of AUC expressed in ng·h/mL.

These solved cases illustrate the format of a correct answer.
CC(C)C(NC(=O)N(C)Cc1ccccn1)C(=O)N[C@@H](Cc1ccccc1)C[C@H](O)[C@H](Cc1ccccc1)NC(=O)OCc1cccnc1 (stereo partly specified) = 3.09
Cc1cncc(COC(=O)NC(C(=O)N[C@@H](Cc2ccccc2)C[C@H](O)[C@H](Cc2ccccc2)NC(=O)OCc2cccnc2)C(C)C)c1 (stereo partly specified) = 1.85

Which log10 AUC value is on record for COc1cncc(COC(=O)NC(C(=O)N[C@@H](Cc2ccccc2)C[C@H](O)[C@H](Cc2ccccc2)NC(=O)OCc2cccnc2)C(C)C)c1 (stereo partly specified) ?
1.48

Bench note: what log10 AUC did CC(C)C(NC(=O)N(C)Cc1csc(C(C)(C)C)n1)C(=O)N[C@@H](Cc1ccccc1)[C@@H](O)C[C@H](Cc1ccccc1)NC(=O)OCc1cccnc1 (stereo partly specified) show?
2.71

Can you share its log10 AUC? I mean this molecule: CCc1ncc(COC(=O)NC(C(=O)N[C@@H](Cc2ccccc2)[C@@H](O)C[C@H](Cc2ccccc2)NC(=O)OCc2cccnc2)C(C)C)s1 (stereo partly specified)
2.69

# lookup: log10 AUC of Cc1nc(CN(C)C(=O)NC(C(=O)N[C@@H](Cc2ccccc2)C[C@H](O)[C@H](Cc2ccccc2)NC(=O)OCc2cccnc2)C(C)C)cs1 (stereo partly specified)
3.03

###

Test: in vivo
Settings: rat, plasma, po
// reported AUC per item
Reply numerically in ng·h/mL, unit not repeated.

CC(C)C(NC(=O)N(C)Cc1csc(C2CC2)n1)C(=O)N[C@@H](Cc1ccccc1)[C@@H](O)C[C@H](Cc1ccccc1)NC(=O)OCc1cncs1 (stereo partly drawn) = 10700
Cc1ncsc1CCOC(=O)NC(C(=O)N[C@@H](Cc1ccccc1)[C@@H](O)C[C@H](Cc1ccccc1)NC(=O)OCc1cccnc1)C(C)C (stereo partly drawn) = 360

Turning now to a further record.
State the recorded AUC for this entry: COc1cncc(CN(C)C(=O)NC(C(=O)N[C@@H](Cc2ccccc2)C[C@H](O)[C@H](Cc2ccccc2)NC(=O)OCc2cccnc2)C(C)C)c1 (stereo partly drawn)
50

###

Assay: Oral bioavailability in rat
Type: ADME, organism-based
Conditions: in vivo
Mark false for bioavailability values under 2%, and true for everything at or above.

COc1cncc(COC(=O)NC(C(=O)N[C@@H](Cc2ccccc2)[C@@H](O)C[C@H](Cc2ccccc2)NC(=O)OCc2cccnc2)C(C)C)c1 (stereo partly drawn) = false
Cc1cncc(COC(=O)NC(C(=O)N[C@@H](Cc2ccccc2)[C@@H](O)C[C@H](Cc2ccccc2)NC(=O)OCc2cccnc2)C(C)C)c1 (stereo partly drawn) = true
CC(C)c1ncc(COC(=O)NC(C(=O)N[C@@H](Cc2ccccc2)[C@@H](O)C[C@H](Cc2ccccc2)NC(=O)OCc2cccnc2)C(C)C)s1 (stereo partly drawn) = false
CCc1nc(COC(=O)NC(C(=O)N[C@@H](Cc2ccccc2)C[C@H](O)[C@H](Cc2ccccc2)NC(=O)OCc2cccnc2)C(C)C)cs1 (stereo partly drawn) = true
CC(C)c1nc(CCOC(=O)NC(C(=O)N[C@@H](Cc2ccccc2)[C@@H](O)C[C@H](Cc2ccccc2)NC(=O)OCc2cncs2)C(C)C)cs1 (stereo partly drawn) = false

Hi, just wondering whether Cc1cccc(CN(C)C(=O)NC(C(=O)N[C@@H](Cc2ccccc2)C[C@H](O)[C@H](Cc2ccccc2)NC(=O)OCc2cccnc2)C(C)C)n1 (stereo partly drawn) shows bioavailability of 2% or higher.
true

Test whether the compound CC(C)c1nc(COC(=O)NC(C(=O)N[C@@H](Cc2ccccc2)[C@@H](O)C[C@H](Cc2ccccc2)NC(=O)OCc2cncs2)C(C)C)cs1 (stereo partly drawn) records bioavailability of 2% or higher.
false

# bool: bioavailability of COc1ccc(COC(=O)NC(C(=O)N[C@@H](Cc2ccccc2)C[C@H](O)[C@H](Cc2ccccc2)NC(=O)OCc2cccnc2)C(C)C)cn1 (stereo partly drawn) >= 2%
false

Record Cc1ncc(CN(C)C(=O)NC(C(=O)N[C@@H](Cc2ccccc2)[C@@H](O)C[C@H](Cc2ccccc2)NC(=O)OCc2cccnc2)C(C)C)nc1C (stereo partly drawn) ; criterion: bioavailability no lower than 2%. Met?
true

Check this compound for bioavailability at or above 2%: COCc1nc(COC(=O)NC(C(=O)N[C@@H](Cc2ccccc2)[C@@H](O)C[C@H](Cc2ccccc2)NC(=O)OCc2cccnc2)C(C)C)cs1 (stereo partly drawn)
true

Reported bioavailability at or above 2%? CCc1cccc(COC(=O)NC(C(=O)N[C@@H](Cc2ccccc2)C[C@H](O)[C@H](Cc2ccccc2)NC(=O)OCc2cccnc2)C(C)C)n1 (stereo partly drawn)
true

Check the entry CC(C)c1nc(CN(C)C(=O)NC(C(=O)N[C@@H](Cc2ccccc2)C[C@H](O)[C@H](Cc2ccccc2)NC(=O)OCc2ccno2)C(C)C)cs1 (stereo partly drawn) : does bioavailability equal or exceed 2%?
true

Could you verify whether the entry Cc1nc(CN(C)C(=O)NC(C(=O)N[C@@H](Cc2ccccc2)C[C@H](O)[C@H](Cc2ccccc2)NC(=O)OCc2cccnc2)C(C)C)cs1 (stereo partly drawn) shows bioavailability of no less than 2%?
true

###

Assay: in vivo
Details: rat, plasma, po
property_measured: log10 Tmax (log10 of the value in min)
Please interpret these as log10 of Tmax where Tmax is in min.

Some compounds with recorded log10 Tmax:
CC(C)c1nc(CN(C)C(=O)NC(C(=O)N[C@@H](Cc2ccccc2)C[C@H](O)[C@H](Cc2ccccc2)NC(=O)OCc2cncs2)C(C)C)cs1 (stereo partly specified) = 2.08
CC(NC(=O)N(C)Cc1csc(C(C)C)n1)C(=O)N[C@@H](Cc1ccccc1)C[C@H](O)[C@H](Cc1ccccc1)NC(=O)OCc1cncs1 (stereo partly specified) = 1.48

Dear colleague, I am looking for the recorded log10 Tmax of the following compound: CCc1nc(COC(=O)NC(C(=O)N[C@@H](Cc2ccccc2)[C@@H](O)C[C@H](Cc2ccccc2)NC(=O)OCc2cccnc2)C(C)C)cs1 (stereo partly specified)
0.78

Return reported log10 Tmax; argument: CC(C)c1nc(CCC(=O)NC(C(=O)N[C@@H](Cc2ccccc2)[C@@H](O)C[C@H](Cc2ccccc2)NC(=O)OCc2cccnc2)C(C)C)cs1 (stereo partly specified)
0.78

Can you look up the measured log10 Tmax of Cc1cccc(CN(C)C(=O)NC(C(=O)N[C@@H](Cc2ccccc2)[C@@H](O)C[C@H](Cc2ccccc2)NC(=O)OCc2cccnc2)C(C)C)n1 (stereo partly specified) for me?
1.18

I'd like to know its log10 Tmax. The compound in question is CCc1nc(CN(C)C(=O)NC(C(=O)N[C@@H](Cc2ccccc2)C[C@H](O)[C@H](Cc2ccccc2)NC(=O)OCc2cncs2)C(C)C)co1 (stereo partly specified)
1.30

###

Assay: Oral bioavailability in rat
Format: ADME, organism-based
Conditions: in vivo
Give 1 (yes) when the value for bioavailability is at least 7%. Give 0 (no) when it is less.

CC(C)C(NC(=O)N(C)Cc1cscn1)C(=O)N[C@@H](Cc1ccccc1)C[C@H](O)[C@H](Cc1ccccc1)NC(=O)OCc1cccnc1 (stereo partly specified) = 0 (no)

Does the reported bioavailability for CC(C)C(NC(=O)N(C)Cc1csc(C(C)(C)C)n1)C(=O)N[C@@H](Cc1ccccc1)C[C@H](O)[C@H](Cc1ccccc1)NC(=O)OCc1cccnc1 (stereo partly specified) fall at or above the 7% mark?
0 (no)

Does bioavailability meet or surpass 7% for CCc1ncc(COC(=O)NC(C(=O)N[C@@H](Cc2ccccc2)[C@@H](O)C[C@H](Cc2ccccc2)NC(=O)OCc2cccnc2)C(C)C)s1 (stereo partly specified) ?
1 (yes)

Determine whether this compound has bioavailability no lower than 7%: Cc1ccc(CN(C)C(=O)NC(C(=O)N[C@@H](Cc2ccccc2)[C@@H](O)C[C@H](Cc2ccccc2)NC(=O)OCc2cccnc2)C(C)C)cn1 (stereo partly specified)
0 (no)

Is it the case that COCc1nc(CN(C)C(=O)NC(C(=O)N[C@@H](Cc2ccccc2)[C@@H](O)C[C@H](Cc2ccccc2)NC(=O)OCc2cccnc2)C(C)C)cs1 (stereo partly specified) has bioavailability reaching or exceeding 7%?
1 (yes)

Does the reported bioavailability for COc1ccc(COC(=O)NC(C(=O)N[C@@H](Cc2ccccc2)[C@@H](O)C[C@H](Cc2ccccc2)NC(=O)OCc2cccnc2)C(C)C)nc1 (stereo partly specified) fall at or above the 7% mark?
1 (yes)
